# key: entry, value: viability, T/C
Tested on: 233499-124-R-J3-PDC spheroids with HUVEC/MSC, viability
Assay Notes: Anticancer human tumor 233499-124-R-J3-PDC patient-derived colon adenocarcinoma cell line growth inhibition [PI3K]
Run Parameters: second compound 10 µM; first compound 10 µM; stronger effect = lower value

>  <Compound>
CC1(C)CCC(CN2CCN(c3ccc(C(=O)NS(=O)(=O)c4ccc(NCC5CCOCC5)c([N+](=O)[O-])c4)c(Oc4cnc5[nH]ccc5c4)c3)CC2)=C(c2ccc(Cl)cc2)C1 + CC(Nc1ncnc2nc[nH]c12)c1cc2cccc(Cl)c2c(=O)n1-c1ccccc1

>  <Measurement Unit>
%

>  <viability, T/C>
5.61

$$$$
>  <Compound>
CC(Cn1ccc(-c2ccc(C#N)c(Cl)c2)n1)NC(=O)c1cc(C(C)O)[nH]n1 (stereo not given) + Cc1nc(NC(=O)N2CCCC2C(N)=O)sc1-c1ccnc(C(C)(C)C(F)(F)F)c1

>  <Measurement Unit>
%

>  <viability, T/C>
38.9

$$$$
>  <Compound>
CNC(=O)c1ccc(N2C(=S)N(c3ccc(C#N)c(C(F)(F)F)c3)C(=O)C2(C)C)cc1F + Cc1nc(NC(=O)N2CCCC2C(N)=O)sc1-c1ccnc(C(C)(C)C(F)(F)F)c1

>  <Measurement Unit>
%

>  <viability, T/C>
19.6

$$$$
>  <Compound>
C#Cc1c(F)ccc2cc(O)cc(-c3ncc4c(N5CC6CCC(C5)N6)nc(OCC56CCCN5CC(F)C6)nc4c3F)c12 (stereo not given) + CC(Nc1ncnc2nc[nH]c12)c1cc2cccc(Cl)c2c(=O)n1-c1ccccc1

>  <Measurement Unit>
%

>  <viability, T/C>
84.7

$$$$
>  <Compound>
CNC(=O)c1ccc(N2C(=S)N(c3ccc(C#N)c(C(F)(F)F)c3)C(=O)C2(C)C)cc1F + CC(Nc1ncnc2nc[nH]c12)c1cc2cccc(Cl)c2c(=O)n1-c1ccccc1

>  <Measurement Unit>
%

>  <viability, T/C>
58.3

$$$$

---

System: 233499-124-R-J3-PDC spheroids with HUVEC/MSC, viability
Assay Notes: Anticancer human tumor 233499-124-R-J3-PDC cell line growth inhibition [PI3K];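 further: spheroids exposed to agents for seven days before readout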;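 on viability, T/C: percent viability relative to DMSO vehicle control taken as 100%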
Run Parameters: second compound 0.1 µM; first compound 0.1 µM; stronger effect = lower value

>  <Compound>
CC(C)n1nc(-c2ccc3oc(N)nc3c2)c2c(N)ncnc21 + COc1c(OCCCN2CCOCC2)ccc2c3n(c(=NC(=O)c4cnc(N)nc4)nc12)CCN3

>  <viability, T/C (%)>
16.9

$$$$
>  <Compound>
CNC(=O)c1ccc(N2C(=S)N(c3ccc(C#N)c(C(F)(F)F)c3)C(=O)C2(C)C)cc1F + COc1c(OCCCN2CCOCC2)ccc2c3n(c(=NC(=O)c4cnc(N)nc4)nc12)CCN3

>  <viability, T/C (%)>
53.8

$$$$
>  <Compound>
Cn1ncc(Cl)c1-c1cc(C(=O)NC(CN)Cc2cccc(F)c2)sc1Cl (stereo not given) + CC(Nc1ccc2c(c1)OCCn1cc(N3C(=O)OCC3C(F)F)nc1-2)C(N)=O

>  <viability, T/C (%)>
94.3

$$$$
>  <Compound>
CNC(=O)c1ccc(N2C(=S)N(c3ccc(C#N)c(C(F)(F)F)c3)C(=O)C2(C)C)cc1F + CC(Nc1ncnc2nc[nH]c12)c1cc2cccc(Cl)c2c(=O)n1-c1ccccc1

>  <viability, T/C (%)>
81

$$$$
>  <Compound>
C=CC(=O)N1CCN(c2nc(=O)n(-c3c(C)ccnc3C(C)C)c3nc(-c4c(O)cccc4F)c(F)cc23)C(C)C1 (stereo not given) + COc1c(OCCCN2CCOCC2)ccc2c3n(c(=NC(=O)c4cnc(N)nc4)nc12)CCN3

>  <viability, T/C (%)>
73.4

$$$$

---

Tested on: 233499-124-R-J3-PDC spheroids with HUVEC/MSC, viability
Assay Notes: Anticancer human tumor 233499-124-R-J3-PDC cell line growth inhibition [PI3K];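 further: spheroids exposed to agents for seven days before readout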
Run Parameters: curve of first compound; second compound 0.0316 µM
From the text: Combinatorial screen of targeted agents with the PI3K inhibitors inavolisib, alpelisib, duvelisib, and copanlisib in multi-cell type tumor spheroids A high-throughput screen of multi-cell type tumor spheroids was designed to identify active combinations of targeted small molecules and PI3K pathway inhibitors. […] Compounds. […] If the clinical Cmax for an agent had not been determined, the highest concentration tested was 10 microM. […]
Endpoint Name: IC50 (nM)

>  <Compound>
CC(Cn1ccc(-c2ccc(C#N)c(Cl)c2)n1)NC(=O)c1cc(C(C)O)[nH]n1 (stereo unspecified) + CC(Nc1ccc2c(c1)OCCn1cc(N3C(=O)OCC3C(F)F)nc1-2)C(N)=O

>  <Readout Relation>
>

>  <Value Observed>
10000

$$$$
>  <Compound>
Cn1cnc2c(F)c(Nc3ccc(Br)cc3Cl)c(C(=O)NOCCO)cc21 + CC(Nc1ccc2c(c1)OCCn1cc(N3C(=O)OCC3C(F)F)nc1-2)C(N)=O

>  <Readout Relation>
=

>  <Value Observed>
262

$$$$
>  <Compound>
CC1(C)CCC(Nc2ncc(C(F)(F)F)c(-c3c[nH]c4c(P(C)(C)=O)c(C#N)ccc34)n2)CN1 (stereo unspecified) + COc1c(OCCCN2CCOCC2)ccc2c3n(c(=NC(=O)c4cnc(N)nc4)nc12)CCN3

>  <Readout Relation>
=

>  <Value Observed>
56.7

$$$$
>  <Compound>
CC(C)NCC(C(=O)N1CCN(c2ncnc3c2C(C)CC3O)CC1)c1ccc(Cl)cc1 (stereo unspecified) + COc1c(OCCCN2CCOCC2)ccc2c3n(c(=NC(=O)c4cnc(N)nc4)nc12)CCN3

>  <Readout Relation>
>

>  <Value Observed>
10000

$$$$
>  <Compound>
CC(=O)c1c(C)c2cnc(Nc3ccc(N4CCNCC4)cn3)nc2n(C2CCCC2)c1=O + COc1c(OCCCN2CCOCC2)ccc2c3n(c(=NC(=O)c4cnc(N)nc4)nc12)CCN3

>  <Readout Relation>
>

>  <Value Observed>
100

$$$$
>  <Compound>
Cn1ncc(Cl)c1-c1cc(C(=O)NC(CN)Cc2cccc(F)c2)sc1Cl (stereo unspecified) + COc1c(OCCCN2CCOCC2)ccc2c3n(c(=NC(=O)c4cnc(N)nc4)nc12)CCN3

>  <Readout Relation>
=

>  <Value Observed>
1640

$$$$

---

Tested on: 233499-124-R-J3-PDC spheroids with HUVEC/MSC, viability
Assay Notes: Anticancer human tumor 233499-124-R-J3-PDC cell line growth inhibition [PI3K];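 further: spheroids exposed to agents for seven days before readout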;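 on viability, T/C: percent viability relative to DMSO vehicle control taken as 100%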
Run Parameters: second compound 10 µM; first compound 10 µM; stronger effect = lower value
# key: entry, value: viability, T/C

>  <Compound>
CC(Cn1ccc(-c2ccc(C#N)c(Cl)c2)n1)NC(=O)c1cc(C(C)O)[nH]n1 (stereo unspecified) + CC(Nc1ncnc2nc[nH]c12)c1cc2cccc(Cl)c2c(=O)n1-c1ccccc1

>  <Measurement Unit>
%

>  <viability, T/C>
93.3

$$$$
>  <Compound>
Cn1nccc1Nc1nccc(-c2ccn(C(CO)c3ccc(Cl)c(F)c3)c(=O)c2)n1 (stereo unspecified) + Cc1nc(NC(=O)N2CCCC2C(N)=O)sc1-c1ccnc(C(C)(C)C(F)(F)F)c1

>  <Measurement Unit>
%

>  <viability, T/C>
17.5

$$$$
>  <Compound>
CCCS(=O)(=O)Nc1ccc(F)c(C(=O)c2c[nH]c3ncc(-c4ccc(Cl)cc4)cc23)c1F + CC(Nc1ncnc2nc[nH]c12)c1cc2cccc(Cl)c2c(=O)n1-c1ccccc1

>  <Measurement Unit>
%

>  <viability, T/C>
3.63

$$$$
>  <Compound>
CC(C)NCC(C(=O)N1CCN(c2ncnc3c2C(C)CC3O)CC1)c1ccc(Cl)cc1 (stereo unspecified) + CC(Nc1ncnc2nc[nH]c12)c1cc2cccc(Cl)c2c(=O)n1-c1ccccc1

>  <Measurement Unit>
%

>  <viability, T/C>
88

$$$$
>  <Compound>
CC(C)NCC(C(=O)N1CCN(c2ncnc3c2C(C)CC3O)CC1)c1ccc(Cl)cc1 (stereo unspecified) + Cc1nc(NC(=O)N2CCCC2C(N)=O)sc1-c1ccnc(C(C)(C)C(F)(F)F)c1

>  <Measurement Unit>
%

>  <viability, T/C>
23.9

$$$$
>  <Compound>
Cn1ncc(Cl)c1-c1cc(C(=O)NC(CN)Cc2cccc(F)c2)sc1Cl (stereo unspecified) + Cc1nc(NC(=O)N2CCCC2C(N)=O)sc1-c1ccnc(C(C)(C)C(F)(F)F)c1

>  <Measurement Unit>
%

>  <viability, T/C>
2.94

$$$$

---

Tested on: 233499-124-R-J3-PDC spheroids with HUVEC/MSC, viability
Assay Notes: Anticancer human tumor 233499-124-R-J3-PDC cell line growth inhibition [PI3K];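 further: spheroids exposed to agents for seven days before readout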;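 on viability, T/C: percent viability relative to DMSO vehicle control taken as 100%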
Run Parameters: second compound 0.316 µM; first compound 0.1 µM; stronger effect = lower value

>  <Molecule>
CC(=O)c1c(C)c2cnc(Nc3ccc(N4CCNCC4)cn3)nc2n(C2CCCC2)c1=O + Cc1nc(NC(=O)N2CCCC2C(N)=O)sc1-c1ccnc(C(C)(C)C(F)(F)F)c1

>  <viability, T/C / %>
45.3

$$$$
>  <Molecule>
CC1(C)CCC(CN2CCN(c3ccc(C(=O)NS(=O)(=O)c4ccc(NCC5CCOCC5)c([N+](=O)[O-])c4)c(Oc4cnc5[nH]ccc5c4)c3)CC2)=C(c2ccc(Cl)cc2)C1 + COc1c(OCCCN2CCOCC2)ccc2c3n(c(=NC(=O)c4cnc(N)nc4)nc12)CCN3

>  <viability, T/C / %>
28.9

$$$$
>  <Molecule>
CC(Cn1ccc(-c2ccc(C#N)c(Cl)c2)n1)NC(=O)c1cc(C(C)O)[nH]n1 (stereo not given) + CC(Nc1ncnc2nc[nH]c12)c1cc2cccc(Cl)c2c(=O)n1-c1ccccc1

>  <viability, T/C / %>
101

$$$$
>  <Molecule>
CC(Cn1ccc(-c2ccc(C#N)c(Cl)c2)n1)NC(=O)c1cc(C(C)O)[nH]n1 (stereo not given) + COc1c(OCCCN2CCOCC2)ccc2c3n(c(=NC(=O)c4cnc(N)nc4)nc12)CCN3

>  <viability, T/C / %>
35.2

$$$$
>  <Molecule>
Cn1ncc(Cl)c1-c1cc(C(=O)NC(CN)Cc2cccc(F)c2)sc1Cl (stereo not given) + COc1c(OCCCN2CCOCC2)ccc2c3n(c(=NC(=O)c4cnc(N)nc4)nc12)CCN3

>  <viability, T/C / %>
42.5

$$$$
